System: LS-513
Experiment: cells
Format: functional, cell-based
Details: Homo sapiens
Description: SANGER: Inhibition of human LS-513 cell growth in a cell viability assay.
EXPERIMENTAL_READOUT: IC50

See these solved cases before continuing.
* COc1cc(C)c(Sc2cnc(NC(=O)c3ccc(CNC(C)C(C)(C)C)cc3)s2)cc1C(=O)N1CCN(C(C)=O)CC1 (stereo not given) | > 10.2 µM
* NC(=O)c1ncn([C@@H]2O[C@H](COP(=O)(O)O)[C@@H](O)[C@H]2O)c1N | > 2000 µM
* CCNc1cc(N[C@H]2CC[C@@H](O)CC2)nc(Nc2ccc3c(ccn3Cc3ccccc3)c2)n1 | > 5.12 µM
* N#C/C(=C1/Nc2ccccc2S1)c1ccnc(NCCc2cccnc2)n1 | > 8 µM

Ask: Given the entry O=c1cc(N2CCOCC2)oc2c(-c3cccc4c3sc3ccccc34)cccc12 , report its measured IC50.
Result: > 2 µM

---

System: LC-1F;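 also: growth inhibition of human LC-1F cells, read out with a cell viability assay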
Test: cells
Type: functional, cell-based
Details: Homo sapiens
Description: SANGER: Inhibition of human LC-1F cell growth in a cell viability assay.
Catalogue of compounds with associated IC50

- COc1cc(C)c(Sc2cnc(NC(=O)c3ccc(CNC(C)C(C)(C)C)cc3)s2)cc1C(=O)N1CCN(C(C)=O)CC1 (configuration not stated): > 10.2 µM

Here is the next item to consider.
Ask: Given the entry Cc1nc(Nc2ncc(C(=O)Nc3c(C)cccc3Cl)s2)cc(N2CCN(CCO)CC2)n1 [DASATINIB] , report its measured IC50.
Result: > 1.28 µM

---

Test system: JVM-3
Test: cells
Assay type: functional, cell-based
Conditions: Homo sapiens
Description: SANGER: Inhibition of human JVM-3 cell growth in a cell viability assay.
Catalogue of compounds with associated IC50
Form entry: value (nM) — number only.

See these solved cases before continuing.
- CO[C@@]12[C@H](COC(N)=O)C3=C(C(=O)C(C)=C(N)C3=O)N1C[C@@H]1N[C@@H]12 [MITOMYCIN]: 2650
- COc1cc(Nc2c(C#N)cnc3cc(OCCCN4CCN(C)CC4)c(OC)cc23)c(Cl)cc1Cl [BOSUTINIB]: 1050
- CCCS(=O)(=O)Nc1ccc(F)c(C(=O)c2c[nH]c3ncc(Cl)cc23)c1F [PLX-4720]: 9570

Here is the next item to consider.
Ask: Give IC50 (JVM-3) of the following compound: C[C@]12O[C@H](C[C@]1(O)CO)n1c3ccccc3c3c4c(c5c6ccccc6n2c5c31)CNC4=O [LESTAURTINIB]
Result: 29.2

---

Test system: PC-14;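 also: cell viability assay measuring inhibition of PC-14 cell growth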
Assay: cells
Assay type: functional, cell-based
Details: Homo sapiens
Description: SANGER: Inhibition of human PC-14 cell growth in a cell viability assay.
EXPERIMENTAL_READOUT: log10 of IC50 (log10 of the value in nM)
Short version: log10 scale, IC50, nM.

See these solved cases before continuing.
* CC[C@@]1(O)C(=O)OCc2c1cc1n(c2=O)Cc2cc3ccccc3nc2-1 | 1.13
* CO[C@@]12[C@H](COC(N)=O)C3=C(C(=O)C(C)=C(N)C3=O)N1C[C@@H]1N[C@@H]12 | 2.69
* COc1cc(Nc2c(C#N)cnc3cc(OCCCN4CCN(C)CC4)c(OC)cc23)c(Cl)cc1Cl | 3.11
* NC(=O)c1ncn([C@@H]2O[C@H](COP(=O)(O)O)[C@@H](O)[C@H]2O)c1N | 5.58
* Cn1c(=O)n(-c2ccc(C(C)(C)C#N)cc2)c2c3cc(-c4cnc5ccccc5c4)ccc3ncc21 | 1.67

Here is the next item to consider.
Ask: Give log10 of IC50 (PC-14) of the following compound: CC[C@]1(O)C[C@@H]2CN(CCc3c([nH]c4ccccc34)[C@@](C(=O)OC)(c3cc4c(cc3OC)N(C)[C@H]3[C@@](O)(C(=O)OC)[C@H](OC(C)=O)[C@]5(CC)C=CCN6CC[C@]43[C@@H]65)C2)C1
Result: 0.55
